- target.under.test: T1, recombinant human Ang2-FLD (human, UniProt O15123 275-496, limits assumed)
- T1 construct: domain: FLD; not used
- T1 sequence (looked up): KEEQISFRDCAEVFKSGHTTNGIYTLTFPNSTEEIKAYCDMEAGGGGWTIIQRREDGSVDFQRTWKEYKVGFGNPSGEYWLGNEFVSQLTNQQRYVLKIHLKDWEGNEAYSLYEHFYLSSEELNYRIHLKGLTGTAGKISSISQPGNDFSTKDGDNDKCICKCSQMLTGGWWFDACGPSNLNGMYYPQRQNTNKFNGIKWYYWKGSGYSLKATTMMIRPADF
- assay.overview: SPR (Biacore T100), binder on CM5 chip, Ang2-FLD as analyte
- Protocol: In brief, VHH and benchmark compounds are immobilized on a CM5 chip via amine coupling. […] Ang2-FLD species are allowed to associate for 2 min and to dissociate for 20 min at a flow rate of 45 μL/min. […] Association/dissociation data are evaluated by fitting a 1:1 interaction model (Langmuir binding). The affinity constant KD is calculated from resulting association and dissociation rate constants kₐ and kd and are depicted in Table 8.
Below is a list of entries, each paired with its recorded koff value.

binder	scale.unit	koff
VHH 13A02 (VHH, also called 013A02; not shown: C-terminal c-myc tag and His6 tag) VHH: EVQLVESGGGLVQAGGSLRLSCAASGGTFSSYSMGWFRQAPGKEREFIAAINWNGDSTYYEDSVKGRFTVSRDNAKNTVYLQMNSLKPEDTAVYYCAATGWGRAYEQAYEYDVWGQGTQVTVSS	s⁻¹	0.091
VHH 1D01 (VHH, also called 001D01; not shown: C-terminal c-myc tag and His6 tag) VHH: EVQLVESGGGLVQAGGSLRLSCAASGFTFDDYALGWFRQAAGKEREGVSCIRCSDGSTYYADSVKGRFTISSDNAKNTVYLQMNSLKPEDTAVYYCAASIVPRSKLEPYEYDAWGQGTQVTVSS	s⁻¹	0.015
VHH 7G08 (VHH, also called 007G08; not shown: C-terminal c-myc tag and His6 tag) VHH: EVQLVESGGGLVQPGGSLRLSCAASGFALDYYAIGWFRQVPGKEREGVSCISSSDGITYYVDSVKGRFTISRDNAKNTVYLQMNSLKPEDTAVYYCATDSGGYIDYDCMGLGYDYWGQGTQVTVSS	s⁻¹	0.0001
